Source of measurements: patent US7101872B2

system: GHD; experiment: Antiproliferative study, glioma cell lines (MTT); assay type: cell-based; conditions: Homo sapiens, Astrocytoma, 96 hrs
Measured Endpoint: IC50 (µM)
Numeric answer only, unit µM assumed.

Prompt line: Fill in IC50 for record CC(C)=CCC/C(C)=C/CC/C(C)=C/CN1C(=O)c2cccc(O)c2Nc2c(O)cc(O)cc21 [ECO-04601]
Response line: 6.29

----------
target: human 5-LO (Homo sapiens); construct: Human peripheral blood mononuclear cells (PMNs) were isolated through a Ficoll-Paque density gradient; endogenous in cells; host or cells: human peripheral blood cells (PMNs) isolated by Ficoll-Paque, stimulated with A23187; assay: Human 5-lipoxygenase activity in stimulated PMNs (Leukotriene B4 EIA); format: cell-based; details: A23187-stimulated human PMNs, 15 minutes at 37° C., Leukotriene B4 EIA; read-out: apparent IC50, activity of human 5-LO
Sequence (P09917 whole entry): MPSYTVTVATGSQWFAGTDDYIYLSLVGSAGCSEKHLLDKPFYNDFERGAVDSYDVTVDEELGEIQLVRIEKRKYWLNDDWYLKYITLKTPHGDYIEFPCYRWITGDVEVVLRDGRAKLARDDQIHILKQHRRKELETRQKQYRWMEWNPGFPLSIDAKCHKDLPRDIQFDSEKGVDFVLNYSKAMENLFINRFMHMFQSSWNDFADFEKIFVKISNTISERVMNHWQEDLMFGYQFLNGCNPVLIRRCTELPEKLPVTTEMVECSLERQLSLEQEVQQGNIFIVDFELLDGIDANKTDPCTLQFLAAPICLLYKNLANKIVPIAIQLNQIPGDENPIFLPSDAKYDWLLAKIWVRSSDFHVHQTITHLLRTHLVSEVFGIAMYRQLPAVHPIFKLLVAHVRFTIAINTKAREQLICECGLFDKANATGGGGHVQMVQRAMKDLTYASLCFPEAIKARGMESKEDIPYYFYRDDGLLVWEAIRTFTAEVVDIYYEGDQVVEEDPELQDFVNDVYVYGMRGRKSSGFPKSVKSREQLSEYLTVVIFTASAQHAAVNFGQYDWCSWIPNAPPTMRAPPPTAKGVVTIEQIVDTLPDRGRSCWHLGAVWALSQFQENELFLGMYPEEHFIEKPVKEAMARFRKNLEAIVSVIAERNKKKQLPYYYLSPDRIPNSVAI
Measured Endpoint: pIC50
pIC50 is defined as minus the log10 of a concentration measured in mol/L.

Prompt line: Fill in pIC50 for record `CC(C)=CCC/C(C)=C/CC/C(C)=C/CN1C(=O)c2cccc(O)c2Nc2c(O)cc(O)cc21`
Response line: 6.03
